FYI, the data here is from PubChem BioAssay.

test: endothelial E-selectin expression blockers – imaging, HUVEC, immunofluorescence, MLSMR starter and 10KST1 sets, primary screen (AID 487); settings: HUVEC TNFalpha-induced E-selectin immunofluorescence imaging, at 2 µM; stronger effect = higher value;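 note: signal is fraction of cell area covered by stained E-selectin grains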
// reported inhibition for each item listed

{"compound": "CCC(C)(C(=O)NC1CCCCC1)N(CC1CCCO1)C(=O)c1ccccn1 (stereo unspecified)", "valueUnit": "%", "inhibition": -5.3}
{"compound": "O=C(CNCC1CCCO1)Nc1ccccc1-n1cccc1 (stereo unspecified)", "valueUnit": "%", "inhibition": -127}
{"compound": "Cc1occc1-c1nnc(SCC(=O)c2ccc(F)cc2)n1Cc1ccco1", "valueUnit": "%", "inhibition": -42.8}
{"compound": "COc1ccc(-c2noc(COc3ccc(C)c(C)c3)n2)cc1OC", "valueUnit": "%", "inhibition": 21.9}
{"compound": "Cc1cc(C)c2c(=O)n(CC(=O)NCCCN3CCOCC3)sc2n1", "valueUnit": "%", "inhibition": 36.7}
{"compound": "COc1cccc(C2CC(=O)Nc3cc4c(cc32)OCCO4)c1OC(C)C (stereo unspecified)", "valueUnit": "%", "inhibition": -18.7}
{"compound": "COC(=O)C1CCN(C(=O)c2sc3nc(-c4ccc(F)cc4)cn3c2C)CC1", "valueUnit": "%", "inhibition": -65.8}
{"compound": "COCc1ccccc1Cn1cnc2c1c(=O)n(C)c(=O)n2C", "valueUnit": "%", "inhibition": 25.6}
{"compound": "Cc1c(C(=O)OC2CCCCC2)[nH]c2c1C(=O)CC(C)(C)C2", "valueUnit": "%", "inhibition": 14.6}
{"compound": "Clc1ccc(OCc2nc(-c3ccccn3)no2)c(Br)c1", "valueUnit": "%", "inhibition": -1.9}
{"compound": "O=C(Cn1cnc2c(cnn2-c2ccc(F)cc2)c1=O)N1CCCc2ccccc21", "valueUnit": "%", "inhibition": -61.6}

====

test: endothelial E-selectin expression blockers – imaging, HUVEC, immunofluorescence, MLSMR starter and 10KST1 sets, primary screen (AID 487); conditions: HUVEC TNFalpha-induced E-selectin immunofluorescence imaging, at 2 µM; stronger effect = higher value;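 note: signal is fraction of cell area covered by stained E-selectin grains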
// reported inhibition for each item listed

{"compound": "COc1cccc2sc(NC(=O)c3ccc(S(=O)(=O)N4CCOCC4)cc3)nc12", "inhibition / %": -21}
{"compound": "O=C(c1ccco1)N1CCN(/C(=N/S(=O)(=O)c2cccs2)c2ccccc2Cl)CC1", "inhibition / %": 33.2}
{"compound": "O=c1[nH]cnc2c1nc(SCc1ccccc1)n2C1OC(CO)C(O)C1O (centres undefined)", "inhibition / %": -9.9}
{"compound": "CC(C)N(Cc1nc(-c2ccc(Cl)cc2)no1)C(=O)CN(C)S(=O)(=O)c1ccc(Cl)cc1", "inhibition / %": -53.8}
{"compound": "CC(C)c1nnc(NC(=O)CCC(=O)NCc2ccc3c(c2)OCO3)s1", "inhibition / %": 21.4}
{"compound": "Nn1c(SCC(=O)Nc2ccc(F)cc2)nnc1-c1cccnc1", "inhibition / %": -112}
{"compound": "CCOC(=O)Cn1c2c(c(=N)c3ccccc31)CCC2", "inhibition / %": 2}
{"compound": "Cc1cccc(N2C(=O)CC(Sc3nc(C)c4c(n3)CCCC4)C2=O)c1 (centres undefined)", "inhibition / %": 2}
{"compound": "CC1(C)CNC(=O)CC(C)(C)N1O", "inhibition / %": -66.8}
{"compound": "O=C(NC1=NCCS1)NC12CC3CC(CC(C3)C1)C2", "inhibition / %": -52.9}
{"compound": "COc1ccc(CN(Cc2cc3cc4c(cc3[nH]c2=O)OCO4)C(=O)NC2CCCCC2)cc1", "inhibition / %": -75.9}
{"compound": "Cc1c(NC(=O)Cn2nc(C(=O)O)c3ccccc3c2=O)c(=O)n(-c2ccccc2)n1C", "inhibition / %": -148}
{"compound": "O=C(c1cccc(C(=O)N2CCN(c3ccccc3)CC2)c1)N1CCN(c2ccccc2)CC1", "inhibition / %": -86.1}
{"compound": "Cc1ccc(-c2nnn(CC(=O)N(Cc3cccs3)C(C(=O)NC(C)(C)C)c3ccc(C)o3)n2)o1 (centres undefined)", "inhibition / %": -20.1}
{"compound": "C1CCc2nnc(-c3nnc4n3CCCCC4)n2CC1", "inhibition / %": -3.6}
{"compound": "CCOC(=O)N1CCN(C(=O)CN(c2ccc(C)cc2)S(=O)(=O)c2c(C)noc2C)CC1", "inhibition / %": -36.7}
{"compound": "Cn1c(=O)c2c(nc(NCCCO)n2CCc2ccccc2)n(C)c1=O", "inhibition / %": -27.9}
{"compound": "O=C1C(c2ccncc2)=C(O)c2ccccc21", "inhibition / %": 0.7}
{"compound": "COc1cc(C(=O)OC(C)CN2CCCC2)cc(OC)c1OC (centres undefined)", "inhibition / %": 30.9}
{"compound": "c1ccc2c(c1)nc(NC1CCCCC1)c1nncn12", "inhibition / %": -47.5}
{"compound": "C=CCn1c(SCC(=O)Nc2ccccc2OC)nnc1-c1ccccn1", "inhibition / %": -6.9}
{"compound": "Cc1cc(C)nc(/N=C2\\NC(=O)CC(C(=O)O)N2c2ccc(Cl)cc2)n1 (centres undefined)", "inhibition / %": -44.1}
{"compound": "Cc1ccc2cc(C#N)c(NCCCNC(=O)C3CCCO3)nc2c1 (centres undefined)", "inhibition / %": -25.3}
{"compound": "CCN(Cc1ccccc1)C(c1ccncc1)c1nnnn1C(C)(C)C (centres undefined)", "inhibition / %": -42.3}
{"compound": "Cc1cc(=O)n2nc(N3CCCC(C(=O)N4CCN(C)CC4)C3)sc2n1 (centres undefined)", "inhibition / %": -186}
{"compound": "CCOP(=O)(c1ccc(N(C)C)cc1)C(O)c1ccccc1OC (centres undefined)", "inhibition / %": -31.9}
{"compound": "Cc1cc(=O)n2nc(N3CCC(C(=O)N4CCN(Cc5ccccc5)CC4)CC3)sc2n1", "inhibition / %": -31.7}
{"compound": "CCN(C(=O)CCc1nc(-c2ccccc2F)no1)c1cc(OC)ccc1OC", "inhibition / %": -20.9}
{"compound": "CCCCN(C)C(=O)c1cn(C)c2ccc(S(=O)(=O)N(C)C)cc2c1=O", "inhibition / %": 39.3}
{"compound": "COc1ccc(CN(C(=O)CSc2nnc(-c3ccccc3F)o2)c2ccc(F)cc2)cc1", "inhibition / %": -118}
{"compound": "Brc1ccc(-c2csc(/N=C/N3CCOCC3)n2)cc1", "inhibition / %": 13.5}
{"compound": "CC(C)c1nccn1S(=O)(=O)c1cc(Cl)ccc1Cl", "inhibition / %": 20.8}
{"compound": "Cc1cccc(N2C(=O)CC(N3CCN(c4cccc(C(F)(F)F)c4)CC3)C2=O)c1 (centres undefined)", "inhibition / %": -13.6}
{"compound": "COc1ccc(S(=O)(=O)N(CC(=O)N2CCN(c3ccccc3OC)CC2)c2ccccc2)cc1", "inhibition / %": 20}
{"compound": "N[C@@H](Cc1ccccc1)c1nnc2sc(SCc3ccccc3)nn12", "inhibition / %": -15.7}
{"compound": "Cc1ccc(S(=O)(=O)N(CCO)c2cc3c(s2)CCCC3)cc1", "inhibition / %": -151}
{"compound": "O=C(c1ncn[nH]1)N1CCN(c2nc(-c3ccccc3)cs2)CC1", "inhibition / %": 22.4}
{"compound": "N#CCCN(C(=O)Nc1ccc(Cl)cc1)c1ccccc1", "inhibition / %": -15.7}
{"compound": "CC1=C(C(=O)Nc2ccccc2)C(c2cccs2)C(C#N)=C(SCC#N)N1 (centres undefined)", "inhibition / %": 34.7}
{"compound": "Cc1ccc(NC(=O)C2CC=CCC2C(=O)N2CCCCC2)cc1 (centres undefined)", "inhibition / %": -9.5}
{"compound": "COc1ccc(C(c2nnnn2C2CCCC2)N2CCC(C)CC2)c(OC)c1 (centres undefined)", "inhibition / %": -5.7}
{"compound": "O=C(CCCCCN1C(=O)CCC1=O)NCc1ccccc1", "inhibition / %": -64.5}
{"compound": "Cn1c(-c2ccc(C(C)(C)C)cc2)n[nH]c1=S", "inhibition / %": 47.5}
{"compound": "COc1ccc(NC(=O)CN(c2cc(C)cc(C)c2)S(=O)(=O)c2c(C)noc2C)cc1OC", "inhibition / %": -8.7}

====

assay: reduction of polyQ htt aggregates in cells – imaging, exon1htt(103Q)mCFP cells, high-content imaging, primary screen (AID 483); settings: exon1htt(103Q)mCFP cell line, aggregate imaging, at 2 µM; measured here: cell count, toxicity;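 note: compound exposure lasted 3 days before fixation; percent of the per-plate median nuclei count of sample wells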
Flag rule - nuclei count less than 90% flags T; the remaining entries get F.

{"compound": "CC(=O)Nc1ccc(S(=O)(=O)NCC(C)NS(=O)(=O)c2ccc(NC(C)=O)cc2)cc1 (stereo unspecified)", "assignedLabel": "T"}
{"compound": "COC(=O)C(CC(C)C)NC(=O)CSc1nc(-c2ccccc2)c(C#N)c(=O)[nH]1 (stereo unspecified)", "assignedLabel": "T"}
{"compound": "CCCCOC(=O)n1c(SCC(=O)N(CC)CC)nc2ccccc21", "assignedLabel": "F"}
{"compound": "COc1ccccc1N1CCN(C(=O)N2CCOCC2)CC1", "assignedLabel": "F"}
{"compound": "CC(C)(O)C#Cc1ccc(C(=O)N2CCN(C(=O)c3ccco3)CC2)cc1", "assignedLabel": "F"}
{"compound": "COc1ccc(N(C(=O)c2ccco2)C(C(=O)NC2CCCC2)c2ccc(N(C)C)cc2)cc1OC (stereo unspecified)", "assignedLabel": "F"}
{"compound": "COc1ccccc1OCCOCCn1cnc2ccccc2c1=O", "assignedLabel": "T"}
{"compound": "CCOc1ccc(OCCCCN(C)C)cc1", "assignedLabel": "F"}
{"compound": "Cc1ccc2c(c1)CCCN2C(=O)Nc1ccc2c(c1)OCO2", "assignedLabel": "F"}
{"compound": "CC(NC(=O)c1cn(C)c2ccc(S(=O)(=O)N3CCCC3)cc2c1=O)c1ccc2c(c1)OCCO2 (stereo unspecified)", "assignedLabel": "F"}
